Target Under Test: androgen receptor (AR-LBD) (Rattus norvegicus, UniProt P15207)
Construct: 5 μL of 2×AR-LBD/Fluoromone AL Red Complex contained in the kit; purchased Invitrogen
Sequence (P15207 651-882 limits assumed): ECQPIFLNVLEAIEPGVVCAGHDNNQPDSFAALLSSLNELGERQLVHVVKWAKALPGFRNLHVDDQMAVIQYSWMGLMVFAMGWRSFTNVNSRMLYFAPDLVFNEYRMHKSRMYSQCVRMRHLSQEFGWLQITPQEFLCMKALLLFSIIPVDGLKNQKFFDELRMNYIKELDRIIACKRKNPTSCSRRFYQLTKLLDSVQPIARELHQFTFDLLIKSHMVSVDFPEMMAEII
Experiment Notes: Evaluation of androgen receptor affinity (PolarScreen Androgen Receptor Competitor Assay Kit, Red; fluorescence polarization)
Run Conditions: 22° C. for 5 hours, relative to binding rate of 1 μM DHT, read-out: AR affinity (pEC50) (converted)
The entries below are paired with their reported log10 of EC50.
Quantity Kind: log10 of EC50 (log10 of the value in nM)

[[record]]
given_smiles = "Cc1sc(N(CCc2ccc(Cl)cc2Cl)Cc2ccccc2)nc1C(=O)NS(C)(=O)=O"
target_under_test = "androgen receptor (AR-LBD) (Rattus norvegicus, UniProt P15207)"
reported_result = 1.90

[[record]]
given_smiles = "CS(=O)(=O)NC(=O)c1nc(N(Cc2ccc(C(F)(F)F)cc2)c2ccc(C#N)cc2)sc1Br"
target_under_test = "androgen receptor (AR-LBD) (Rattus norvegicus, UniProt P15207)"
reported_result = 1.60

[[record]]
given_smiles = "Cc1oc(N(Cc2cc3ccccc3s2)c2ccc(C#N)cc2)nc1C(=O)NS(C)(=O)=O"
target_under_test = "androgen receptor (AR-LBD) (Rattus norvegicus, UniProt P15207)"
reported_result = 1.30

[[record]]
given_smiles = "COCCCS(=O)(=O)NC(=O)c1nc(N(Cc2ccc(F)cc2)c2ccc(C#N)cc2)sc1C"
target_under_test = "androgen receptor (AR-LBD) (Rattus norvegicus, UniProt P15207)"
reported_result = 1.60

[[record]]
given_smiles = "Cc1sc(N(Cc2cc(F)ccc2Cl)c2ccc(C#N)cc2)nc1C(=O)NS(C)(=O)=O"
target_under_test = "androgen receptor (AR-LBD) (Rattus norvegicus, UniProt P15207)"
reported_result = 2.00

[[record]]
given_smiles = "Cc1oc(N(Cc2ccc(F)cc2)c2ccc(C#N)cc2)nc1C(=O)NS(C)(=O)=O"
target_under_test = "androgen receptor (AR-LBD) (Rattus norvegicus, UniProt P15207)"
reported_result = 2.00

[[record]]
given_smiles = "Cc1sc(N(Cc2ccccc2)c2ccc(C#N)cc2)nc1C(=O)NS(=O)(=O)C(F)F"
target_under_test = "androgen receptor (AR-LBD) (Rattus norvegicus, UniProt P15207)"
reported_result = 1.40

[[record]]
given_smiles = "Cc1sc(N(CCc2ccc(Cl)cc2)Cc2cccc(OC(F)(F)F)c2)nc1C(=O)NS(C)(=O)=O"
target_under_test = "androgen receptor (AR-LBD) (Rattus norvegicus, UniProt P15207)"
reported_result = 1.70

[[record]]
given_smiles = "CS(=O)(=O)NC(=O)c1nc(N(Cc2ccc(Cl)cc2)c2ccc(C#N)cc2)oc1C1CC1"
target_under_test = "androgen receptor (AR-LBD) (Rattus norvegicus, UniProt P15207)"
reported_result = 1.60

[[record]]
given_smiles = "Cc1sc(N(CCC2CCCCC2)Cc2ccc(Cl)cc2)nc1C(=O)NS(=O)(=O)Cc1cccc(F)c1"
target_under_test = "androgen receptor (AR-LBD) (Rattus norvegicus, UniProt P15207)"
reported_result = 2.70

[[record]]
given_smiles = "Cc1sc(N(CCn2cc(Cl)cn2)Cc2ccccc2)nc1C(=O)NS(C)(=O)=O"
target_under_test = "androgen receptor (AR-LBD) (Rattus norvegicus, UniProt P15207)"
reported_result = 2.30

[[record]]
given_smiles = "COCCCS(=O)(=O)NC(=O)c1nc(N(Cc2ccc(Cl)cc2)c2ccc(C#N)cc2)sc1C"
target_under_test = "androgen receptor (AR-LBD) (Rattus norvegicus, UniProt P15207)"
reported_result = 1.40

[[record]]
given_smiles = "CCC(CC)CN(c1ccc(C#N)cc1)c1nc(C(=O)NS(C)(=O)=O)c(C)s1"
target_under_test = "androgen receptor (AR-LBD) (Rattus norvegicus, UniProt P15207)"
reported_result = 2.10

[[record]]
given_smiles = "CS(=O)(=O)NC(=O)c1csc(N(Cc2ccccc2)c2ccc(C#N)cc2)n1"
target_under_test = "androgen receptor (AR-LBD) (Rattus norvegicus, UniProt P15207)"
reported_result = 2.60

[[record]]
given_smiles = "Cc1sc(N(Cc2ccc(N3CCCC3=O)cc2)c2ccc(C#N)cc2)nc1C(=O)NS(C)(=O)=O"
target_under_test = "androgen receptor (AR-LBD) (Rattus norvegicus, UniProt P15207)"
reported_result = 3.00

[[record]]
given_smiles = "CCc1sc(N(Cc2ccccc2)c2ccc(C#N)cc2)nc1C(=O)NS(C)(=O)=O"
target_under_test = "androgen receptor (AR-LBD) (Rattus norvegicus, UniProt P15207)"
reported_result = 1.80


Origin of measurements: patent US10689354B2
